Test: in vivo
Conditions: Sprague-Dawley, rat, iv, 1 mg/kg
Property: MRT inf (min)
Numbers only, in min.

                                   compound  unit_label  measured
0  Cn1cc(C(=O)O)c2ccc(N3CCC(OCc4c(-c5c(Cl)cccc5Cl)noc4C4CC4)CC3)cc21 [TERN-101]         min        21
1  CCn1cc(C(=O)O)c2ccc(N3CCC(F)(COCc4c(-c5c(F)cccc5Cl)noc4C4CC4)CC3)cc21         min      30.6

Request the reported MRT inf associated with O=C(O)c1cc(F)c2nc(N3C4CCC3CC(F)(COCc3c(-c5ccccc5OC(F)(F)F)noc3C3CC3)C4)sc2c1 (stereo not drawn)
102

###

Test: in vivo
Details: Sprague-Dawley, rat, po, 3 mg/kg
Would you kindly list Tmax for each of these compounds?
Give bare numbers, in min.

Solved entries:
In [3]: df
Out[3]:
                                   compound  property  measured
0  O=C(O)c1cc(F)c2nc(N3C4CCC3CC(F)(COCc3c(-c5ccccc5OC(F)(F)F)noc3C3CC3)C4)sc2c1 (stereo not drawn)      Tmax      22.8
1  CCn1cc(C(=O)O)c2ccc(N3CCC(F)(COCc4c(-c5c(F)cccc5Cl)noc4C4CC4)CC3)cc21      Tmax        15

Moving on to another compound below.
Request the reported Tmax associated with Cn1cc(C(=O)O)c2ccc(N3CCC(OCc4c(-c5c(Cl)cccc5Cl)noc4C4CC4)CC3)cc21 [TERN-101]
15
